Numbers sourced from paper PMC10544018.

# testName: Log D7.4 measurement by chromatographic method
# Format: physicochemical
# recordedConditions: experimental distribution coefficient at pH 7.4; read-out: e log D7.4
Rule: chromatographic logD below 2 gives Satisfied, anything at or above gives Not satisfied.

Cc1cc(-c2scnc2C)ccc1[C@H](C)NC(=O)[C@@H]1C[C@@H](O)CN1C(=O)[C@@H](NC(=O)C1(C#N)CC1)C(C)(C)C [Compound 24]; Not satisfied
Cc1cc(-c2scnc2C)cc(C)c1CNC(=O)[C@@H]1C[C@@H](O)CN1C(=O)[C@@H](NC(=O)C1(C#N)CC1)C(C)(C)C [Compound 10]; Not satisfied
Cc1cc(-c2scnc2C)ccc1CNC(=O)[C@@H]1C[C@@H](O)CN1C(=O)[C@@H](NC(=O)C1(F)CC1)C(C)(C)C [Compound 26]; Not satisfied
COc1cc(CNC(=O)[C@@H]2C[C@@H](O)CN2C(=O)[C@@H](NC(=O)C2(C#N)CC2)C(C)(C)C)ccc1-c1scnc1C [Compound 7]; Satisfied

Below: the item to evaluate.
Answer whether the compound Cc1ncsc1-c1cc(Cl)c(CNC(=O)[C@@H]2C[C@@H](O)CN2C(=O)[C@@H](NC(=O)C2(C#N)CC2)C(C)(C)C)cc1Cl [Compound 17] has chromatographic logD strictly less than 2
Not satisfied

====

# measuredOn: human serum albumin (Homo sapiens, UniProt P02768)
# Sequence (P02768 25-609): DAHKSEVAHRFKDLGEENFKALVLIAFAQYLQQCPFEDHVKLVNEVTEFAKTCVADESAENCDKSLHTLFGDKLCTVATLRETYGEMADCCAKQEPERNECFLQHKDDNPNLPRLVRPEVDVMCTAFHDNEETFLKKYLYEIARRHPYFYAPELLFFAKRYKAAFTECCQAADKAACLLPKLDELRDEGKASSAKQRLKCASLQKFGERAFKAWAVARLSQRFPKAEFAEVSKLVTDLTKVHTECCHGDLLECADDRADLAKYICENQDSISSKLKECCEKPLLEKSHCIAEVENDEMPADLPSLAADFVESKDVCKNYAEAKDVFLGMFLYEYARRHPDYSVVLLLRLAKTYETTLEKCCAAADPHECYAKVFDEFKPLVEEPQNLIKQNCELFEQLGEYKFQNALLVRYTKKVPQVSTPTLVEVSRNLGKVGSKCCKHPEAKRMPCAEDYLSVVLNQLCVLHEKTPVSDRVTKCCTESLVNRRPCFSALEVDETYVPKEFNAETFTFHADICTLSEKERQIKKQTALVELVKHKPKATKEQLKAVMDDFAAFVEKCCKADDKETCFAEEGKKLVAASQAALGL
# testName: PPB studies on HSA HPLC column
# Format: in vitro ADME
# recordedConditions: CHIRALPAK HSA HPLC column (human serum albumin); experimentally determined percentage of the compound bound to human serum albumin
Entries and their measured fraction unbound at 0.5 mg/mL follow.

See these solved cases before continuing.
Cc1ncsc1-c1ccc(CNC(=O)[C@@H]2C[C@@H](O)CN2C(=O)[C@@H](NC(=O)C2(C#N)CC2)C(C)(C)C)cc1 [Compound 1, reference compound]; 0.12
Cc1ncsc1-c1ccc(CNC(=O)[C@@H]2C[C@@H](O)CN2C(=O)[C@@H](NC(=O)C2(C#N)CC2)C(C)(C)C)c2ccccc12 [Compound 22]; 0.07
Cc1ncsc1-c1ccc(CNC(=O)[C@@H]2C[C@@H](O)CN2C(=O)[C@@H](NC(=O)C2(C#N)CC2)C(C)(C)C)c(C)c1C [Compound 18]; 0.09
COc1c(CNC(=O)[C@@H]2C[C@@H](O)CN2C(=O)[C@@H](NC(=O)C2(C#N)CC2)C(C)(C)C)ccc(-c2scnc2C)c1F [Compound 21]; 0.11
COc1cc(-c2scnc2C)cc(OC)c1CNC(=O)[C@@H]1C[C@@H](O)CN1C(=O)[C@@H](NC(=O)C1(C#N)CC1)C(C)(C)C [Compound 11]; 0.12
Cc1cc(CNC(=O)[C@@H]2C[C@@H](O)CN2C(=O)[C@@H](NC(=O)C2(C#N)CC2)C(C)(C)C)ccc1-c1scnc1C [Compound 6]; 0.11
Cc1cc(-c2scnc2C)c(F)cc1[C@H](C)NC(=O)[C@@H]1C[C@@H](O)CN1C(=O)[C@@H](NC(=O)C1(F)CC1)C(C)(C)C [Compound 32]; 0.11
Cc1ncsc1-c1ccc(CNC(=O)[C@@H]2C[C@@H](O)CN2C(=O)[C@@H](NC(=O)C2(C#N)CC2)C(C)(C)C)c(O)c1F [Compound 20]; 0.11
Cc1cc(-c2scnc2C)ccc1[C@H](C)NC(=O)[C@@H]1C[C@@H](O)CN1C(=O)[C@@H](NC(=O)C1(F)CC1)C(C)(C)C [Compound 30]; 0.12
Cc1ncsc1-c1ccc(CNC(=O)[C@@H]2C[C@@H](O)CN2C(=O)[C@@H](NC(=O)C2(C#N)CC2)C(C)(C)C)cc1F [Compound 8]; 0.12

Value lookup for fraction unbound at 0.5 mg/mL; key = Cc1ncsc1-c1ccc2c(c1)CC[C@@H]2NC(=O)[C@@H]1C[C@@H](O)CN1C(=O)[C@@H](NC(=O)C1(C#N)CC1)C(C)(C)C [Compound 34]
0.1

Value lookup for fraction unbound at 0.5 mg/mL; key = Cc1ncsc1-c1ccc(CNC(=O)[C@@H]2C[C@@H](O)CN2C(=O)[C@@H](NC(=O)C2(C#N)CC2)C(C)(C)C)c(Cl)c1 [Compound 5]
0.09

Value lookup for fraction unbound at 0.5 mg/mL; key = Cc1cc(-c2scnc2C)ccc1[C@H](C)NC(=O)[C@@H]1C[C@@H](O)CN1C(=O)[C@@H](NC(=O)C1(C#N)CC1)C(C)(C)C [Compound 24]
0.12

Value lookup for fraction unbound at 0.5 mg/mL; key = Cc1cc(-c2scnc2C)cc(C)c1CNC(=O)[C@@H]1C[C@@H](O)CN1C(=O)[C@@H](NC(=O)C1(C#N)CC1)C(C)(C)C [Compound 10]
0.1

Value lookup for fraction unbound at 0.5 mg/mL; key = COc1cc(CNC(=O)[C@@H]2C[C@@H](O)CN2C(=O)[C@@H](NC(=O)C2(C#N)CC2)C(C)(C)C)ccc1-c1scnc1C [Compound 7]
0.13

Value lookup for fraction unbound at 0.5 mg/mL; key = Cc1ncsc1-c1cc(Cl)c(CNC(=O)[C@@H]2C[C@@H](O)CN2C(=O)[C@@H](NC(=O)C2(C#N)CC2)C(C)(C)C)c(Cl)c1 [Compound 13]
0.09

Value lookup for fraction unbound at 0.5 mg/mL; key = Cc1ncsc1-c1ccc(CNC(=O)[C@@H]2C[C@@H](O)CN2C(=O)[C@@H](NC(=O)C2(C#N)CC2)C(C)(C)C)c(F)c1 [Compound 4]
0.12

Value lookup for fraction unbound at 0.5 mg/mL; key = Cc1ncsc1-c1ccc(CNC(=O)[C@@H]2C[C@@H](O)CN2C(=O)[C@@H](NC(=O)C2(C#N)CC2)C(C)(C)C)cc1Cl [Compound 9]
0.09

Value lookup for fraction unbound at 0.5 mg/mL; key = Cc1ncsc1-c1cc2c(cc1F)[C@@H](NC(=O)[C@@H]1C[C@@H](O)CN1C(=O)[C@@H](NC(=O)C1(C#N)CC1)C(C)(C)C)CC2 [Compound 35]
0.1

Value lookup for fraction unbound at 0.5 mg/mL; key = COc1cc(-c2scnc2C)ccc1CNC(=O)[C@@H]1C[C@@H](O)CN1C(=O)[C@@H](NC(=O)C1(C#N)CC1)C(C)(C)C [Compound 3]
0.12

Value lookup for fraction unbound at 0.5 mg/mL; key = Cc1ncsc1-c1ccc(CNC(=O)[C@@H]2C[C@@H](O)CN2C(=O)[C@@H](NC(=O)C2(F)CC2)C(C)(C)C)cc1F [Compound 27]
0.12

Value lookup for fraction unbound at 0.5 mg/mL; key = Cc1cc(-c2scnc2C)c(F)cc1CNC(=O)[C@@H]1C[C@@H](O)CN1C(=O)[C@@H](NC(=O)C1(F)CC1)C(C)(C)C [Compound 28]
0.1

Value lookup for fraction unbound at 0.5 mg/mL; key = Cc1ncsc1-c1cc(F)c(CNC(=O)[C@@H]2C[C@@H](O)CN2C(=O)[C@@H](NC(=O)C2(C#N)CC2)C(C)(C)C)c(F)c1 [Compound 12]
0.14

Value lookup for fraction unbound at 0.5 mg/mL; key = Cc1ncsc1-c1cc(F)c(CNC(=O)[C@@H]2C[C@@H](O)CN2C(=O)[C@@H](NC(=O)C2(C#N)CC2)C(C)(C)C)cc1F [Compound 16]
0.12

Value lookup for fraction unbound at 0.5 mg/mL; key = Cc1ncsc1-c1ccc(CNC(=O)[C@@H]2C[C@@H](O)CN2C(=O)[C@@H](NC(=O)C2(C#N)CC2)C(C)(C)C)c2ncccc12 [Compound 23]
0.12

====

Entries and their measured chromatographic logD follow.
# testName: Log D7.4 measurement by chromatographic method
# Format: physicochemical
# recordedConditions: experimental distribution coefficient at pH 7.4; read-out: e log D7.4
Simply state the number, no unit and no words.

Cc1ncsc1-c1ccc(CNC(=O)[C@@H]2C[C@@H](O)CN2C(=O)[C@@H](NC(=O)C2(C#N)CC2)C(C)(C)C)c(F)c1; 1.9
Cc1ncsc1-c1cc2c(cc1F)[C@@H](NC(=O)[C@@H]1C[C@@H](O)CN1C(=O)[C@@H](NC(=O)C1(C#N)CC1)C(C)(C)C)CC2; 2.3
Cc1ncsc1-c1ccc(CNC(=O)[C@@H]2C[C@@H](O)CN2C(=O)[C@@H](NC(=O)C2(C#N)CC2)C(C)(C)C)c2ncccc12; 1.7
Cc1ncsc1-c1ccc(CNC(=O)[C@@H]2C[C@@H](O)CN2C(=O)[C@@H](NC(=O)C2(C#N)CC2)C(C)(C)C)cc1F; 1.9
Cc1cc(-c2scnc2C)c(F)cc1CNC(=O)[C@@H]1C[C@@H](O)CN1C(=O)[C@@H](NC(=O)C1(F)CC1)C(C)(C)C; 2.3
Cc1ncsc1-c1ccc(CNC(=O)[C@@H]2C[C@@H](O)CN2C(=O)[C@@H](NC(=O)C2(C#N)CC2)C(C)(C)C)c(C)c1C; 2.3

Value lookup for chromatographic logD; key = Cc1ncsc1-c1cc(Cl)c(CNC(=O)[C@@H]2C[C@@H](O)CN2C(=O)[C@@H](NC(=O)C2(C#N)CC2)C(C)(C)C)c(Cl)c1
2.4

Value lookup for chromatographic logD; key = COc1cc(-c2scnc2C)c(F)cc1CNC(=O)[C@@H]1C[C@@H](O)CN1C(=O)[C@@H](NC(=O)C1(F)CC1)C(C)(C)C
2.2

Value lookup for chromatographic logD; key = Cc1cc(-c2scnc2C)ccc1CNC(=O)[C@@H]1C[C@@H](O)CN1C(=O)[C@@H](NC(=O)C1(C#N)CC1)C(C)(C)C
2

Value lookup for chromatographic logD; key = Cc1ncsc1-c1ccc(CNC(=O)[C@@H]2C[C@@H](O)CN2C(=O)[C@@H](NC(=O)C2(F)CC2)C(C)(C)C)cc1 [Compound 38, reference compound]
1.8

Value lookup for chromatographic logD; key = Cc1ncsc1-c1cc(F)c(CNC(=O)[C@@H]2C[C@@H](O)CN2C(=O)[C@@H](NC(=O)C2(C#N)CC2)C(C)(C)C)c(F)c1
1.9

Value lookup for chromatographic logD; key = Cc1ncsc1-c1cc(F)c(CNC(=O)[C@@H]2C[C@@H](O)CN2C(=O)[C@@H](NC(=O)C2(C#N)CC2)C(C)(C)C)cc1F
2
